ASSAY_SUMMARY: Clearance in Beagle dog at 1 mg/kg, iv by LC-MS/MS analysis
Assay type: ADME, organism-based, Canis lupus familiaris
CONDITIONS_USED: in vivo
RESULT_TYPE: clearance (mL/min/kg)
Report the figure in mL/min/kg without appending any unit label.

Exam item: What measured clearance goes with `COC(=O)N[C@H](C(=O)N1[C@H](c2ncc(-c3ccc4c(c3)-c3ccc(-c5cnc([C@@H]6C[C@@H]7CCC[C@@H]7N6C(=O)[C@@H](NC(=O)OC)[C@@H](C)OC)[nH]5)cc3-4)[nH]2)C[C@@H]2CCC[C@@H]21)[C@@H](C)OC` ?
Marked response: 5.3

###

ASSAY_SUMMARY: Clearance in Han Wistar rat at 1 mg/kg, iv by LC-MS/MS analysis
Format: ADME, organism-based
CONDITIONS_USED: in vivo
RESULT_TYPE: clearance (mL/min/kg)
Give just the number in mL/min/kg; leave the unit off.

Exam item: For the molecule `COC(=O)N[C@H](C(=O)N1[C@H](c2ncc(-c3ccc4c(c3)-c3ccc(-c5cnc([C@@H]6C[C@@H]7CCC[C@@H]7N6C(=O)[C@@H](NC(=O)OC)[C@@H](C)OC)[nH]5)cc3-4)[nH]2)C[C@@H]2CCC[C@@H]21)[C@@H](C)OC` , what clearance is on record?
Marked response: 33.8

###

ASSAY_SUMMARY: AUC (0 to t) in Beagle dog at 1 mg/kg, po by LC-MS/MS analysis
Format: ADME, organism-based, Canis lupus familiaris
CONDITIONS_USED: in vivo
RESULT_TYPE: AUC(0-t) (ng·h/mL)
Expressed in ng·h/mL, but write only the number.

Exam item: Endpoint output: AUC(0-t) of `COC(=O)N[C@H](C(=O)N1[C@H](c2ncc(-c3ccc4c(c3)-c3ccc(-c5cnc([C@@H]6C[C@@H]7CCC[C@@H]7N6C(=O)[C@@H](NC(=O)OC)[C@@H](C)OC)[nH]5)cc3-4)[nH]2)C[C@@H]2CCC[C@@H]21)[C@@H](C)OC` . Value?
Marked response: 593

###

ASSAY_SUMMARY: Half life in Beagle dog at 1 mg/kg, po by LC-MS/MS analysis
Assay type: ADME, organism-based, Canis lupus familiaris
CONDITIONS_USED: in vivo
RESULT_TYPE: half-life (h)
Reply numerically in h, unit not repeated.

Exam item: Looking for the measured half-life of `COC(=O)N[C@H](C(=O)N1[C@H](c2ncc(-c3ccc4c(c3)-c3ccc(-c5cnc([C@@H]6C[C@@H]7CCC[C@@H]7N6C(=O)[C@@H](NC(=O)OC)[C@@H](C)OC)[nH]5)cc3-4)[nH]2)C[C@@H]2CCC[C@@H]21)[C@@H](C)OC` , can you help?
Marked response: 6

###

ASSAY_SUMMARY: Half life in CD1 mouse at 5 mg/kg, po by LC-MS/MS analysis
Type: ADME, organism-based
CONDITIONS_USED: in vivo
RESULT_TYPE: half-life (h)
Form entry: value (h) — number only.

Exam item: Quick one: half-life for `COC(=O)N[C@H](C(=O)N1[C@H](c2ncc(-c3ccc4c(c3)-c3ccc(-c5cnc([C@@H]6C[C@@H]7CCC[C@@H]7N6C(=O)[C@@H](NC(=O)OC)[C@@H](C)OC)[nH]5)cc3-4)[nH]2)C[C@@H]2CCC[C@@H]21)[C@@H](C)OC` ?
Marked response: 1.7

###

ASSAY_SUMMARY: Oral bioavailability in Beagle dog at 1 mg/kg by LC-MS/MS analysis
Type: ADME, organism-based, Canis lupus familiaris
CONDITIONS_USED: in vivo
RESULT_TYPE: bioavailability (%)
Number only, in %; omit the unit.

Exam item: Requested field: bioavailability. Item: `COC(=O)N[C@H](C(=O)N1[C@H](c2ncc(-c3ccc4c(c3)-c3ccc(-c5cnc([C@@H]6C[C@@H]7CCC[C@@H]7N6C(=O)[C@@H](NC(=O)OC)[C@@H](C)OC)[nH]5)cc3-4)[nH]2)C[C@@H]2CCC[C@@H]21)[C@@H](C)OC`
Marked response: 20

###

ASSAY_SUMMARY: Cmax in Han Wistar rat at 5 mg/kg, po by LC-MS/MS analysis
Assay type: ADME, organism-based
Design: dose 5 mg/kg, route oral
CONDITIONS_USED: in vivo
Entries and their Cmax values follow.

>>> observed_result("COC(=O)N[C@H](C(=O)N1[C@H](c2ncc(-c3ccc4c(c3)-c3ccc(-c5cnc([C@@H]6C[C@@H]7CCC[C@@H]7N6C(=O)[C@@H](NC(=O)OC)[C@@H](C)OC)[nH]5)cc3-4)[nH]2)C[C@@H]2CCC[C@@H]21)[C@@H](C)OC.Cl")
"258 ng/mL"

Now look at this one.
Exam item: Value lookup for Cmax; key = `COC(=O)N[C@H](C(=O)N1[C@H](c2ncc(-c3ccc4c(c3)-c3ccc(-c5cnc([C@@H]6C[C@@H]7CCC[C@@H]7N6C(=O)[C@@H](NC(=O)OC)[C@@H](C)OC)[nH]5)cc3-4)[nH]2)C[C@@H]2CCC[C@@H]21)[C@@H](C)OC`
Marked response: 32 ng/mL

###

ASSAY_SUMMARY: AUC (0 to infinity) in Beagle dog at 1 mg/kg, po by LC-MS/MS analysis
Type: ADME, organism-based, Canis lupus familiaris
Parameters: dose 1 mg/kg, route oral, time infinity
CONDITIONS_USED: in vivo
RESULT_TYPE: AUC(0-inf) (ng·h/mL)
Kindly provide the numeric value in ng·h/mL only, without the unit symbol.

Exam item: Consider the compound `COC(=O)N[C@H](C(=O)N1[C@H](c2ncc(-c3ccc4c(c3)-c3ccc(-c5cnc([C@@H]6C[C@@H]7CCC[C@@H]7N6C(=O)[C@@H](NC(=O)OC)[C@@H](C)OC)[nH]5)cc3-4)[nH]2)C[C@@H]2CCC[C@@H]21)[C@@H](C)OC` and give its measured AUC(0-inf).
Marked response: 633

###

ASSAY_SUMMARY: Tmax in Han Wistar rat at 5 mg/kg, po by LC-MS/MS analysis
Type: ADME, organism-based
CONDITIONS_USED: in vivo
RESULT_TYPE: Tmax (h)
Just the number please, in h, no unit attached.

>>> observed_result("COC(=O)N[C@H](C(=O)N1[C@H](c2ncc(-c3ccc4c(c3)-c3ccc(-c5cnc([C@@H]6C[C@@H]7CCC[C@@H]7N6C(=O)[C@@H](NC(=O)OC)[C@@H](C)OC)[nH]5)cc3-4)[nH]2)C[C@@H]2CCC[C@@H]21)[C@@H](C)OC")
2

Exam item: GET /values?readout=Tmax&item= `COC(=O)N[C@H](C(=O)N1[C@H](c2ncc(-c3ccc4c(c3)-c3ccc(-c5cnc([C@@H]6C[C@@H]7CCC[C@@H]7N6C(=O)[C@@H](NC(=O)OC)[C@@H](C)OC)[nH]5)cc3-4)[nH]2)C[C@@H]2CCC[C@@H]21)[C@@H](C)OC.Cl`
Marked response: 1.5

###

ASSAY_SUMMARY: Cmax in CD1 mouse at 5 mg/kg, po by LC-MS/MS analysis
Assay type: ADME, organism-based
Design: dose 5 mg/kg, route oral
CONDITIONS_USED: in vivo
RESULT_TYPE: Cmax (ng/mL)
Unit ng/mL implied. Number only.

Exam item: If you can, please state the reported Cmax value of `COC(=O)N[C@H](C(=O)N1[C@H](c2ncc(-c3ccc4c(c3)-c3ccc(-c5cnc([C@@H]6C[C@@H]7CCC[C@@H]7N6C(=O)[C@@H](NC(=O)OC)[C@@H](C)OC)[nH]5)cc3-4)[nH]2)C[C@@H]2CCC[C@@H]21)[C@@H](C)OC` .
Marked response: 506

###

Listed compounds paired with reported bioavailability
ASSAY_SUMMARY: Oral availability in Han Wistar rat at 5 mg/kg by LC-MS/MS analysis
Format: ADME, organism-based
CONDITIONS_USED: in vivo
# unit: % | format: bare number

>>> observed_result("COC(=O)N[C@H](C(=O)N1[C@H](c2ncc(-c3ccc4c(c3)-c3ccc(-c5cnc([C@@H]6C[C@@H]7CCC[C@@H]7N6C(=O)[C@@H](NC(=O)OC)[C@@H](C)OC)[nH]5)cc3-4)[nH]2)C[C@@H]2CCC[C@@H]21)[C@@H](C)OC.Cl")
41

Now for the compound whose bioavailability we want.
Exam item: Name the reported bioavailability value associated with the compound `COC(=O)N[C@H](C(=O)N1[C@H](c2ncc(-c3ccc4c(c3)-c3ccc(-c5cnc([C@@H]6C[C@@H]7CCC[C@@H]7N6C(=O)[C@@H](NC(=O)OC)[C@@H](C)OC)[nH]5)cc3-4)[nH]2)C[C@@H]2CCC[C@@H]21)[C@@H](C)OC`
Marked response: 9

###

ASSAY_SUMMARY: Volume of distribution at steady state in CD1 mouse at 1 mg/kg, iv by LC-MS/MS analysis
Format: ADME, organism-based
CONDITIONS_USED: in vivo, read-out: Vdss
RESULT_TYPE: Vd (L/kg)
Express your answer in L/kg, writing the number without its unit.

Exam item: Record request: Vd value, item `COC(=O)N[C@H](C(=O)N1[C@H](c2ncc(-c3ccc4c(c3)-c3ccc(-c5cnc([C@@H]6C[C@@H]7CCC[C@@H]7N6C(=O)[C@@H](NC(=O)OC)[C@@H](C)OC)[nH]5)cc3-4)[nH]2)C[C@@H]2CCC[C@@H]21)[C@@H](C)OC`
Marked response: 1.3
